# target.or.test.system: human Ephrin type-A Receptor 1 (EphA1), EPHA1 (gene 2041) (UniProt P21709)
# Sequence (P21709 whole entry, looked up): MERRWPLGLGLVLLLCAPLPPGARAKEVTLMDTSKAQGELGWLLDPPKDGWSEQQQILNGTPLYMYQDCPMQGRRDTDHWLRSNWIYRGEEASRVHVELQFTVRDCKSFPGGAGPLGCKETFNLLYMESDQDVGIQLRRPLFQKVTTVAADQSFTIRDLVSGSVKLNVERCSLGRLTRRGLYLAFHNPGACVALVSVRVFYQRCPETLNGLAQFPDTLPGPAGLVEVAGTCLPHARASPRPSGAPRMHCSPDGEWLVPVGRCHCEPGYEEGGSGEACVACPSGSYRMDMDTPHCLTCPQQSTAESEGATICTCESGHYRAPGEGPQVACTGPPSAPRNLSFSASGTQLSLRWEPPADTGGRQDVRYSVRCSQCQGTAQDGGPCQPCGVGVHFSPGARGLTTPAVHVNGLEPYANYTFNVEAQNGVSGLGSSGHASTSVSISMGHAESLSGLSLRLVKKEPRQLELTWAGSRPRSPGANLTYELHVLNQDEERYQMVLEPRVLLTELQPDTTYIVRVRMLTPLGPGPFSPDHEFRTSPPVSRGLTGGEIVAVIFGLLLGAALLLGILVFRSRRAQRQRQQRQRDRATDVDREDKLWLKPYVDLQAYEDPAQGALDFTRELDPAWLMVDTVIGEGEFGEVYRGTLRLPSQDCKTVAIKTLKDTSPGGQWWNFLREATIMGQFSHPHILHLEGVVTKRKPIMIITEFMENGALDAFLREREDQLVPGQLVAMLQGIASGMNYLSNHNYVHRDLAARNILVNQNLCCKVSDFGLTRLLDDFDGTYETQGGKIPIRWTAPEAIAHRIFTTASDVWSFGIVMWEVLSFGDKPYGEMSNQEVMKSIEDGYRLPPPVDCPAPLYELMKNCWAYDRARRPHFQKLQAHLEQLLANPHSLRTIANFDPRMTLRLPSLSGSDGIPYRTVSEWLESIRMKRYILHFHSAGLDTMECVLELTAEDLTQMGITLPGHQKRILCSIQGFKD
# measurement.protocol: NVS_ENZ_hEphA1: NovaScreen (NVS) Enzymatic Assay for human Ephrin type-A Receptor 1 (EphA1) (AID 2283158);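 also: activity is signal loss versus DMSO meaning EphA1 kinase inhibition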
Results filed as inconclusive are left out. Activity calls are given as the source filed them. The calls were made as follows: active = hit-call score of the fitted dose curve at least 0.9, where 1 is the maximum; inconclusive = response in the unintended direction; inactive = score below 0.9.
Returns: one label drawn from 1 for active, -1 for inactive

>>> print(df.to_string())
                                compound  group_label
0                              COC(=O)OC           -1
1       O=[N+]([O-])c1cc(C(F)(F)F)ccc1Cl           -1
2    CC1CCC2CC1C2(C)C (stereo not drawn)            1
3            CC(C)[C@H]1CC[C@@H](C)CC1=O           -1
4  CC(CCO)CCCC(C)(C)O (stereo not drawn)           -1

Note: attention shifts to another entry.
Query: Could you kindly confirm the outcome this assay logged for `CC(C)[C@@H]1CC[C@@H](C)CC1=O` ?
Response: -1

====

# target.or.test.system: Retinoic acid receptor alpha (Homo sapiens) (UniProt P10276)
# Sequence (P10276 whole entry, looked up): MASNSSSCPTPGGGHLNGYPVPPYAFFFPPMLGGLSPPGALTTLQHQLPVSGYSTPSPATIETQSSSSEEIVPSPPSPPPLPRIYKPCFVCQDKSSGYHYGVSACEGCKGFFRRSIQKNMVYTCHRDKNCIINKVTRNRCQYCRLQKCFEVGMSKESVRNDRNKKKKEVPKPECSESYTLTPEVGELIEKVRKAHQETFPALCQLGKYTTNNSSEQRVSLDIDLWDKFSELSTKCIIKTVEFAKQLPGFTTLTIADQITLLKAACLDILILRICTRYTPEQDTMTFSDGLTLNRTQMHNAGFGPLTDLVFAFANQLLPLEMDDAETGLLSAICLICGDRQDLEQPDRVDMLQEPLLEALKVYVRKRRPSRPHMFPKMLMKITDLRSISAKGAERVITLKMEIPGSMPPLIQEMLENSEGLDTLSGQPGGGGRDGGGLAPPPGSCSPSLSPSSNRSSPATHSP
# measurement.protocol: ATG_RARa_TRANS: Attagene TRANS-FACTORIAL HepG2 Assay for human Retinoic Acid Receptor alpha (RARa) (AID 2283005)
Results filed as inconclusive are left out. Activity calls are given as the source filed them. The calls were made as follows: active = hit-call score of the fitted dose curve at least 0.9, where 1 is the maximum; inconclusive = response in the unintended direction; inactive = score below 0.9.
parameter.measured: outcome

Illustrative cases are given below, each with its answer.
>>> print(df.to_string())
                                   compound  parameter_measured  readout_value
0         CCCCCC(CO)CCC (centres undefined)             outcome       inactive
1  CC1CC(OC(=O)c2ccccc2O)CC(C)(C)C1 (centres undefined)             outcome       inactive
2             COC(C)CCO (centres undefined)             outcome       inactive
3                     O=C1CCCCCCCCCCOCCCCO1             outcome       inactive
4                    CCCCC[Si](OCC)(OCC)OCC             outcome       inactive

Give one value of outcome per listed compound.
1. CC(C)=CCC[C@](C)(O)[C@@H]1CC=C(C)CC1
2. Fc1c(F)c(F)c(Br)c(F)c1F
3. C=CC(=O)OCCOCCOCC
4. CCCC[n+]1ccccc1
5. CCCCNC(=O)NS(=O)(=O)c1ccc(N)cc1
6. CC1(C)C(=O)N(Br)C(=O)N1Cl
7. CCCCCCOC(=O)CCCCC

Response:
1: inactive; 2: inactive; 3: inactive; 4: inactive; 5: inactive; 6: inactive; 7: inactive

Give one value of outcome per listed compound.
1. O=C(O)CN(CCN(CC(=O)O)CC(=O)O)CCN(CC(=O)O)CC(=O)O
2. CN1Cc2c(N)cccc2C(c2ccccc2)C1 (centres undefined)

Response:
inactive
inactive

====

# target.or.test.system: bovine Estrogen Receptor (ER), ESR1 (gene 407238) (UniProt P49884)
# Sequence (P49884 whole entry, looked up): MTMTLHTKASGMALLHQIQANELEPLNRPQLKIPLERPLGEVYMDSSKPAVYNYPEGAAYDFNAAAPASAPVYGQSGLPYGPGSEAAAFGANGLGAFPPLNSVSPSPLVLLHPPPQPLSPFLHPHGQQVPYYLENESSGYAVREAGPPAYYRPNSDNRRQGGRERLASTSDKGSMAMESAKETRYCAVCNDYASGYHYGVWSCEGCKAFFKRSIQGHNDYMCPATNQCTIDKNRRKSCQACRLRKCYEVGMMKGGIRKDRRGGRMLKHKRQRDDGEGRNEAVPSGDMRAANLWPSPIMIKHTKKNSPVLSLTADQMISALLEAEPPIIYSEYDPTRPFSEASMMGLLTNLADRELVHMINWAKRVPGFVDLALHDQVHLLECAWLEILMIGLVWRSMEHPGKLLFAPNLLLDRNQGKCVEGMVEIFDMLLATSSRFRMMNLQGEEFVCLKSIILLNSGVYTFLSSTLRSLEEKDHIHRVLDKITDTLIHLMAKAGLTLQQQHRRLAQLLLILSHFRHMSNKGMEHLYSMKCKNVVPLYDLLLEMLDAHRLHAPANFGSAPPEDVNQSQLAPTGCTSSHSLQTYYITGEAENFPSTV
# measurement.protocol: NVS_NR_bER: NovaScreen (NVS) Nuclear Receptor Binding Assay for bovine Estrogen Receptor (ER) (AID 2283345);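 also: actives lower the bound radioligand count which means they displace the ER ligand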
Results filed as inconclusive are left out. The source made the active and inactive calls. How the source made its calls: active means hit-call score of the fitted dose curve at least 0.9, where 1 is the maximum; inconclusive means response in the unintended direction; inactive means score below 0.9.
Returns: one label drawn from Yes = active, No = inactive

Query: Could you kindly confirm the outcome this assay logged for CN(CCOc1ccc(CC2SC(=O)NC2=O)cc1)c1ccccn1 (stereo unspecified) ?
Response: No
